biological target: T1, Recombinant human HER2 (human, UniProt P04626 23-652); assay: SPR, Ka ratio to WT pertuzumab
T1 construct: extracellular domain; Analyte of the SPR assays; also called HER2 ECD; ECD2 of HER2
This section presents binders with their documented SPR Ka, mut/Ka, WT values.
Numeric only. Scale: fold

binder: Variant 4432 (antibody, name in Kabat numbering, V domains shown, also called literature pertuzumab variant) VH: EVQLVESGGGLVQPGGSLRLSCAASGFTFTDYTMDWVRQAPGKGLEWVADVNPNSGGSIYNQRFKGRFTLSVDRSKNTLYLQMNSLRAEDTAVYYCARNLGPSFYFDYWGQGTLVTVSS VL: DIQMTQSPSSLSASVGDRVTITCKASQDVSIGVAWYQQKPGKAPKLLIYSASYRYTGVPSRFSGSGSGTDFTLTISSLQPEDFATYYCQQYYIYPATFGQGTKVEIK
SPR Ka, mut/Ka, WT (fold): 1.7
--
binder: Variant 4434 (antibody, name in Kabat numbering, V domains shown, also called literature pertuzumab variant) VH: EVQLVESGGGLVQPGGSLRLSCAASGFTFADYTMDWVRQAPGKGLEWVADVNPNSGGSIYNQRFKGRFTLSVDRSKNTLYLQMNSLRAEDTAVYYCARNLGPSFYFDYWGQGTLVTVSS VL: DIQMTQSPSSLSASVGDRVTITCKASQDVSIGVAWYQQKPGKAPKLLIYSASYRYTGVPSRFSGSGSGTDFTLTISSLQPEDFATYYCQQYYIYPYTFGQGTKVEIK
SPR Ka, mut/Ka, WT (fold): 3.3

We now examine a further binder.
[ask] Query: SPR Ka, mut/Ka, WT; subject: Variant 4433 (antibody, name in Kabat numbering, V domains shown, also called literature pertuzumab variant) VH: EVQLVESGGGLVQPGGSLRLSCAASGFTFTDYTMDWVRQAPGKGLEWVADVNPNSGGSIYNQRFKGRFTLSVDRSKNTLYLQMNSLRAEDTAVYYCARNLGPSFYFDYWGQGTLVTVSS VL: DIQMTQSPSSLSASVGDRVTITCKASQDVSIGVAWYQQKPGKAPKLLIYSASYRYTGVPSRFSGSGSGTDFTLTISSLQPEDFATYYCQQYYIYPFTFGQGTKVEIK
[reply] 1.3

Cited source for all entries: patent US20180273635A1
